Just for reference, paper PMC8658022 is where these values come from.

List of MIC values.
Tested on: methicillin-resistant S. aureus SA 3202
testSummary: broth dilution micro-method MIC, MRSA SA 3202
Format: cell-based
conditionSet: Staphylococcus aureus, clinical isolate, 24 h, 37 °C
Return type: number; implicit unit µM.

> print(dat)
                                    compound                               testsystem  measure  resultvalue
 1      COc1ccc2c(n1)Sc1c[n+](C)c3ccccc3c1N2  methicillin-resistant S. aureus SA 3202      MIC          193
 2       C[n+]1cc2c(c3ccccc31)Nc1ccc(F)nc1S2  methicillin-resistant S. aureus SA 3202      MIC         25.1
 3      C[n+]1cc2c(c3ccccc31)Nc1cc(Br)cnc1S2  methicillin-resistant S. aureus SA 3202      MIC         42.1
 4       C[n+]1cc2c(c3ccccc31)Nc1ccc(I)nc1S2  methicillin-resistant S. aureus SA 3202      MIC          299
 5       Cc1ccnc2c1Nc1c(c[n+](C)c3ccccc13)S2  methicillin-resistant S. aureus SA 3202      MIC          203
 6          C[n+]1cc2c(c3ccccc31)Nc1cccnc1S2  methicillin-resistant S. aureus SA 3202      MIC          212
 7      C[n+]1cc2c(c3ccccc31)Nc1ccc(Cl)nc1S2  methicillin-resistant S. aureus SA 3202      MIC          381
 8          C[n+]1cc2c(c3ccccc31)Nc1cnccc1S2  methicillin-resistant S. aureus SA 3202      MIC          424
 9    Cc1cc(F)nc2c1Nc1c(c[n+](C)c3ccccc13)S2  methicillin-resistant S. aureus SA 3202      MIC          383
10  CC1(C)S[C@@H]2[C@H](NC(=O)[C@H](N)c3ccccc3)C(=O)N2[C@H]1C(=O)O [AMP, Ampicillin, reference compound]  methicillin-resistant S. aureus SA 3202      MIC         45.8

Turning now to a further record.
GET /value?item= C[n+]1cc2c(c3ccccc31)Nc1ccc(Br)nc1S2 &field=MIC returns 337

----------
Test system: methicillin-resistant S. aureus 63718
testSummary: broth dilution micro-method MIC, MRSA 63718
Type: cell-based
conditionSet: Staphylococcus aureus, clinical isolate, 24 h, 37 °C
Please note: MIC exactly at 200 µM is rule not met. Only values below 200 µM get rule met.

Known results for compounds:
> print(dat)
                                   compound                             testsystem   answerlabel
1  C[n+]1cc2c(c3ccccc31)Nc1cc(Br)cnc1S2 [3c]  methicillin-resistant S. aureus 63718      rule met
2  C[n+]1cc2c(c3ccccc31)Nc1ccc(Cl)nc1S2 [3d]  methicillin-resistant S. aureus 63718  rule not met
3  Cc1cc(Cl)nc2c1Nc1c(c[n+](C)c3ccccc13)S2 [3g]  methicillin-resistant S. aureus 63718  rule not met

Task: Please state whether MIC is below 200 µM for C[n+]1cc2c(c3ccccc31)Nc1ccc(F)nc1S2 [3e]
Result: rule met

----------
Test system: T47D (human breast cancer)
testSummary: WST-1 cell proliferation assay, T47D
Type: cell-based
conditionSet: Homo sapiens, T47D, 72 h exposure, mean ± std
measure: log10(IC50) (log10 of the value in µM)
Short version: log10 scale, IC50, µM.

> print(dat)
                                molsmiles  resultvalue
1    C[n+]1cc2c(c3ccccc31)Nc1ccc(Cl)nc1S2         0.36
2     Cc1ccnc2c1Nc1c(c[n+](C)c3ccccc13)S2         1.28
3  Cc1cc(F)nc2c1Nc1c(c[n+](C)c3ccccc13)S2         1.68
4    COc1ccc2c(n1)Sc1c[n+](C)c3ccccc3c1N2         0.91
5    C[n+]1cc2c(c3ccccc31)Nc1cc(Br)cnc1S2         1.09

GET /value?item= C[n+]1cc2c(c3ccccc31)Nc1cccnc1S2 &field=log10(IC50) returns 1.66
